Source listed as ChEMBL document CHEMBL1154691.

Would you mind telling me the reported Cmax of each entry?
PROTOCOL NOTES: Cmax in CD1 mouse at 10 mg/kg, po
Type: ADME, organism-based
Parameters: dose 10 mg/kg, route oral
CONDITION INFO: in vivo
Kindly answer with a numeric value in nM, unit omitted.

Would you mind telling me what Cmax value was observed for NC(=O)c1cccc2[nH]c(-c3ccc(-c4ccccn4)cc3)nc12 ?
1800

Would you mind telling me what Cmax value was observed for NC(=O)c1cccc2[nH]c(-c3ccc(-c4cnco4)cc3)nc12 ?
70

Would you mind telling me what Cmax value was observed for NC(=O)c1cccc2[nH]c(-c3ccc(-c4ccncc4)cc3)nc12 ?
760
